The following compounds are shown together with reported Activity values.
Tested on: PC-12
Assay: Neuroprotective activity against SNP induced rat PC-12 cells assessed as increase in cell viability at 10 uM preincubated for 2 hrs followed by SNP stimulation for 24 hrs by MTT assay relative to control
Type: functional
Hi! Could you send only the number? It should be in %, unit omitted.

What measured Activity goes with N#Cc1ccc(-n2nc(-c3ccc(C(F)(F)F)cc3O)nc2-c2ccccc2O)cc1 ?
98.91

// switching to the query compound
What measured Activity goes with CC(C)(C)c1ccc(-n2nc(-c3ccc(C(F)(F)F)cc3O)nc2-c2ccccc2O)cc1 ?
81.14

* * *

Assay: Cmax in Sprague-Dawley rat at 5 mg/kg, iv measured upto 24 hrs by LC-MS/MS analysis
Format: ADME, organism-based
Set-up: dose 5 mg/kg, time < 24 hrs, route iv
Settings: in vivo
measurement-kind: Cmax
// return the numeric value with its unit appended

What measured Cmax goes with Cc1cc(C)cc(-n2nc(-c3ccc(C(F)(F)F)cc3O)nc2-c2ccccc2O)c1 ?
6910 ng/mL

* * *

Test system: PC-12
Assay: Neuroprotective activity against SNP induced rat PC-12 cells assessed as increase in cell viability at 10 uM preincubated for 2 hrs followed by SNP stimulation for 24 hrs by MTT assay relative to control
Type: functional
measurement-kind: Activity (%)
Hi! Could you send only the number? It should be in %, unit omitted.

What measured Activity goes with Oc1cc(C(F)(F)F)ccc1-c1nc(-c2ccccc2O)n(-c2cccc(F)c2)n1 ?
98.25

What measured Activity goes with Oc1cc(C(F)(F)F)ccc1-c1nc(-c2ccccc2O)n(-c2ccc(Cl)cc2)n1 ?
96.09

// switching to the query compound
What measured Activity goes with Oc1cc(C(F)(F)F)ccc1-c1nc(-c2ccccc2O)n(-c2ccccc2F)n1 ?
100.18
